Molecular target: Cytochrome P450 2C19 (Homo sapiens)
Test: Cytochrome panel assay with activity outcomes
Conditions: recombinant CYP, pro-luciferin dealkylation, luminescence, p450-cyp2c19; series mostly up to 57.1 µM
Protocol: The P450 gene superfamily is involved in the metabolism and clearance of xenobiotics. This assay used various human CYP P450 isozymes to measure the dealkylation of various pro-luciferin substrates to luciferin. The luciferin is then measured by luminescence after the addition of a luciferase detection reagent. […] Inhibitors and some substrates limit the production of luciferin, and decrease measured luminescence. […] 8, Detection, 1 sec, ViewLux luminescent read […]
The campaign covered roughly 16,000 compounds. About 5,800 (36%) were called active. Inconclusive results (about 23%) are left out. The list shows a part of the results.
reported.metric: AC50

[[record]]
structure_string = "CS(=O)(=O)N1CCC2(CC1)CN(c1ncccn1)C2"
system_under_test = "Cytochrome P450 2C19 (Homo sapiens)"
reported_metric = "AC50"
measurement = "inactive"

[[record]]
structure_string = "O=S(=O)(c1ccccc1)N1CCC2(CCCN(c3ncccn3)C2)CC1"
system_under_test = "Cytochrome P450 2C19 (Homo sapiens)"
reported_metric = "AC50"
measurement = "398 nM (active)"

[[record]]
structure_string = "O=S(=O)(c1ccccc1)N1CCC2(CC1)CN(c1ncccn1)C2"
system_under_test = "Cytochrome P450 2C19 (Homo sapiens)"
reported_metric = "AC50"
measurement = "inactive"

[[record]]
structure_string = "CCCNC(=O)CSc1nc(-c2cccs2)cc(C(F)(F)F)n1"
system_under_test = "Cytochrome P450 2C19 (Homo sapiens)"
reported_metric = "AC50"
measurement = "562 nM (active)"

[[record]]
structure_string = "Cc1c(NC(C)C)c(=O)n(-c2ccccc2)n1C"
system_under_test = "Cytochrome P450 2C19 (Homo sapiens)"
reported_metric = "AC50"
measurement = "inactive"

[[record]]
structure_string = "COc1cc2nc(N3CC=[N+](C(=O)c4ccco4)CC3)nc(N)c2cc1OC"
system_under_test = "Cytochrome P450 2C19 (Homo sapiens)"
reported_metric = "AC50"
measurement = "inactive"


// provenance: PubChem BioAssay AID1851
